Known Ki of a selection of compounds
Biological target: Adenosine A2A receptor (Homo sapiens (Human))
Sequence (P29274 whole entry): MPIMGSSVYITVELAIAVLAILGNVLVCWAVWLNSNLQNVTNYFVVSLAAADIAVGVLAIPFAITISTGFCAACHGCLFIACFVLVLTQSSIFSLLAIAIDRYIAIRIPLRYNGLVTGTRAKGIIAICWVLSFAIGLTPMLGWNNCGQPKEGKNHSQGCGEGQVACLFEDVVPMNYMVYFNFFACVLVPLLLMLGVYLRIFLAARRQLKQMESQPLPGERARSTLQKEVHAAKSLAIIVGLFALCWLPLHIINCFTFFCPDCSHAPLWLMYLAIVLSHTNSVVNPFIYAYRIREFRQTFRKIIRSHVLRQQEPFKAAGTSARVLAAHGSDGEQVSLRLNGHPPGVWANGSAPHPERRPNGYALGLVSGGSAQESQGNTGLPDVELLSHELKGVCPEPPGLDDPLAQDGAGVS
Test: A2A Tag-lite HTRF Assay
Conditions: Tag-lite Adenosine A2A labeled cells; A2A Receptor Red antagonist fluorescent ligand 12.5 nM; one-site competitive binding model; read-out: A2A_Ki
property name: Ki

Cc1nc(CO)c(-c2c(-c3cccc(C#N)c3)nc(N)n3nc(Cc4ncccc4F)nc23)o1 [Example 85] = < 10 nM
CCOC(=O)c1cn2c(N)nc(-c3ccccc3)c(-c3ccnc(C)c3)c2n1 [Example 11] = 10 to 100 nM
Cc1ncoc1-c1c(-c2cccc(C#N)c2)nc(N)n2nc(Cc3ncccc3CO)nc12 [Example 91] = < 10 nM
CCCn1nccc1-c1c(-c2cccc(C#N)c2)nc(N)n2cc(C(=O)NCC)nc12 [Example 37] = < 10 nM
N#Cc1cccc(-c2nc(N)n3nc(C4CCOC4)nc3c2-c2ccncc2)c1 (centres unmarked) [Example 70] = < 10 nM
N#Cc1cccc(-c2nc(N)n3nc(Cc4ncccc4F)nc3c2-c2ccncn2)c1 [Example 88] = < 10 nM
Cc1cc(-c2c(-c3ccccc3)nc(N)n3cc(C(N)=O)nc23)ccn1 [Example 14] = < 10 nM
Cc1cccc(Cc2nc3c(-c4ccncn4)c(-c4cccc(C#N)c4)nc(N)n3n2)n1 [Example 51] = < 10 nM
Cc1cc(-c2c(-c3ccccc3)nc(N)n3c(CN4CCOCC4)cnc23)cc(C)n1 [Example 3] = 10 to 100 nM
N#Cc1cccc(-c2nc(N)n3nc([C@@H](O)c4ccccc4)nc3c2-c2ccncn2)c1 [Example 64] = < 10 nM
N#Cc1cccc(-c2nc(N)n3nc(C(O)c4ccccc4)nc3c2-c2ncncc2F)c1 (centres unmarked) [Example 45] = < 10 nM
CCNC(=O)c1cn2c(N)nc(-c3ccccc3)c(C3CCN(C(N)=O)CC3)c2n1 [Example 16] = < 10 nM
N#Cc1cccc(-c2nc(N)n3nc(Cc4c(F)cccc4CN4CCC(C(=O)O)CC4)nc3c2-c2ccncn2)c1 [Example 73] = < 10 nM
N#Cc1cccc(-c2nc(N)n3nc(Cc4c(F)cccc4CN4C(=O)CNC4=O)nc3c2-c2ccncn2)c1 [Example 75] = < 10 nM
Cc1ncoc1-c1c(-c2cccc(C#N)c2)nc(N)n2nc(Cc3ccccn3)nc12 [Example 61] = < 10 nM
CCNC(=O)c1cn2c(N)nc(-c3ccccc3)c(-c3cc(C)[n+]([O-])c(C)c3)c2n1 [Example 23] = < 10 nM
CCNC(=O)c1cn2c(N)nc(-c3cccc(C#N)c3)c(-c3ccncc3C#N)c2n1 [Example 31] = < 10 nM
